Sourced from patent EP4356928A1

assay: Stability (hydrolysis half-life) in CEM/0 cell extracts, RP-18 HPLC; format: in vitro ADME; settings: human, read-out: Half-lives CEM T cell extracts (converted)
Quick reference for half-life among some molecules

Q: # get_value(readout='half-life', item= CCCCCCCCCCCCCCCCCCOP(=O)(OCCCC)OP(=O)(O)OC[C@H]1O[C@@H](n2cc(C)c(=O)[nH]c2=O)C[C@@H]1F (some centres unmarked) )
Result: > 10 h

Q: Next molecule: CCCCCCCCCCCCCCCCCCP(=O)(OCCCC)OP(=O)(O)OC[C@H]1O[C@@H](n2cc(C)c(=O)[nH]c2=O)C[C@@H]1N=[N+]=[N-] (some centres unmarked)
Result: > 18 h

Q: Input CCCCCCCCCCCCCCCCCCOP(=O)(OCCCC)OP(=O)(O)OC[C@H]1O[C@@H](n2cc(C)c(=O)[nH]c2=O)C[C@@H]1N=[N+]=[N-] (some centres unmarked)
Result: > 8 h

Q: Next record, please: CCCCCCCCCCCCCCCCCCP(=O)(OCCCC)OP(=O)(O)OC[C@@H]1C=C[C@H](n2cc(C)c(=O)[nH]c2=O)O1 (some centres unmarked)
Result: > 40 h

Q: Please do the same for CCCCCCCCCCCCCCCCCCP(=O)(OCCCC)OP(=O)(O)OC[C@H]1O[C@@H](n2ccc(=O)[nH]c2=O)C[C@@H]1F (some centres unmarked) as well.
Result: > 20 h

Q: Same thing, different molecule: CCCCCCCCCCCCCCCCCCOP(=O)(OCCCC)OP(=O)(O)OC[C@@H]1C=C[C@H](n2cc(C)c(=O)[nH]c2=O)O1 (some centres unmarked)
Result: > 18 h

Q: One more molecule: CCCCCCCCCCCCCCCCCCOP(=O)(OCCCC)OP(=O)(O)OC[C@@H]1C=C[C@H](n2cnc3c(NC4CC4)nc(N)nc32)C1 (some centres unmarked)
Result: 6.7 h

Q: Quick one: CCCCCCCCCCCCCCCCCCP(=O)(OCCCC)OP(=O)(O)OC[C@@H]1C=C[C@H](n2cnc3c(NC4CC4)nc(N)nc32)C1 (some centres unmarked)
Result: > 10 h

----------
tested on: HIV-2 (ROD); experiment: Inhibition of HIV-2 replication in thymidine kinase-deficient CEM/TK- cell cultures; type: cell-based; conditions: Human immunodeficiency virus 2, CEM-TK(-), read-out: Antiviral activity EC50 CEM/TK^- HIV-2 (ROD)
pEC50: −log10 of the molar value.
Use label 1 when the recorded pEC50 is no lower than 7; use label 0 when it is lower.

The following compounds have reported results that may help.
- COMPOUND: "CCCCCCCCCCCCCCCCCCOP(=O)(OCCCC)OP(=O)(O)OC[C@@H]1C=C[C@H](n2cnc3c(NC4CC4)nc(N)nc32)C1 (stereo partly drawn) [No 25]"
  LABEL_VALUE: "label 1"
- COMPOUND: "CCCCCCCCCCCCCCCCCCOP(=O)(OCC(CC)CCCC)OP(=O)(O)OC[C@@H]1C=C[C@H](n2cc(C)c(=O)[nH]c2=O)O1 (stereo partly drawn) [No 17]"
  LABEL_VALUE: "label 1"
- COMPOUND: "CCCCCCCCCCCCCCCCCCP(=O)(OCCCC)OP(=O)(O)OC[C@@H]1C=C[C@H](n2cc(C)c(=O)[nH]c2=O)O1 (stereo partly drawn) [No 18]"
  LABEL_VALUE: "label 1"
- COMPOUND: "CCCCCCCCCCCCCCCCCCP(=O)(OCCCC)OP(=O)(O)OC[C@H]1O[C@@H](n2cc(C)c(=O)[nH]c2=O)C[C@@H]1F (stereo partly drawn) [No 22]"
  LABEL_VALUE: "label 1"
- COMPOUND: "Cc1cn([C@H]2C[C@H](F)[C@@H](CO)O2)c(=O)[nH]c1=O [FLT, alovudine, reference compound]"
  LABEL_VALUE: "label 0"

Q: Textbook exercise: given the entry CCCCCCCCCCCCCCCCCCOP(=O)(OCCCC)OP(=O)(O)OC[C@@H]1C=C[C@H](n2cc(C)c(=O)[nH]c2=O)O1 (stereo partly drawn) [No 16] , state whether its pEC50 is greater than or equal to 7.
Result: label 1

Q: # repeat for Cc1cn([C@H]2C[C@H](N=[N+]=[N-])[C@@H](CO)O2)c(=O)[nH]c1=O [AZT, zidovudine, reference compound]
Result: label 0

Q: Would you kindly repeat that for CCCCCCCCCCCCCCCCCCOP(=O)(OCCCC)OP(=O)(O)OC[C@H]1O[C@@H](n2cc(C)c(=O)[nH]c2=O)C[C@@H]1F (stereo partly drawn) [No 21] ?
Result: label 1

Q: Please do the same for CCCCCCCCCCCCCCCCCCOP(=O)(OCCCC)OP(=O)(O)OC[C@H]1O[C@@H](n2ccc(=O)[nH]c2=O)C[C@@H]1F (stereo partly drawn) [No 23] as well.
Result: label 0

Q: Also need CCCCCCCCCCCCCCCCCCP(=O)(OCCCC)OP(=O)(O)OC[C@@H]1C=C[C@H](n2cnc3c(NC4CC4)nc(N)nc32)C1 (stereo partly drawn) [No 26] , thanks.
Result: label 1

----------
test: Cytotoxicity: inhibition of CD4+ T-cell (CEM) proliferation; details: human, cem cells
ASSAY_METRIC: CC50 (µM)
Just the number in µM, nothing appended.

- COMPOUND: "CCCCCCCCCCCCCCCCCCP(=O)(OCCCC)OP(=O)(O)OC[C@H]1O[C@@H](n2cc(C)c(=O)[nH]c2=O)C[C@@H]1F (some centres unmarked) [No 22]"
  CC50 / µM: 54.3
- COMPOUND: "CCCCCCCCCCCCCCCCCCOP(=O)(OCCCC)OP(=O)(O)OC[C@H]1O[C@@H](n2cc(C)c(=O)[nH]c2=O)C[C@@H]1F (some centres unmarked) [No 21]"
  CC50 / µM: 58.6
- COMPOUND: "CCCCCCCCCCCCCCCCCCP(=O)(OCCCC)OP(=O)(O)OC[C@H]1O[C@@H](n2ccc(=O)[nH]c2=O)C[C@@H]1F (some centres unmarked) [No 24]"
  CC50 / µM: 59.1

Q: Need CC50 of CCCCCCCCCCCCCCCCCCP(=O)(OCCCC)OP(=O)(O)OC[C@@H]1C=C[C@H](n2cc(C)c(=O)[nH]c2=O)O1 (some centres unmarked) [No 18] , thanks.
Result: 42.6

Q: What about this compound? CCCCCCCCCCCCCCCCCCOP(=O)(OCCCC)OP(=O)(O)OC[C@@H]1C=C[C@H](n2cnc3c(NC4CC4)nc(N)nc32)C1 (some centres unmarked) [No 25]
Result: 10.5

Q: Also, CCCCCCCCCCCCCCCCCCP(=O)(OCCCC)OP(=O)(O)OC[C@H]1O[C@@H](n2cc(C)c(=O)[nH]c2=O)C[C@@H]1N=[N+]=[N-] (some centres unmarked) [No 20] please.
Result: 82.7

Q: Please do the same for CCCCCCCCCCCCCCCCCCOP(=O)(OCCCC)OP(=O)(O)OC[C@H]1O[C@@H](n2ccc(=O)[nH]c2=O)C[C@@H]1F (some centres unmarked) [No 23] as well.
Result: 44.8

Q: Now try CCCCCCCCCCCCCCCCCCOP(=O)(OCC(CC)CCCC)OP(=O)(O)OC[C@@H]1C=C[C@H](n2cc(C)c(=O)[nH]c2=O)O1 (some centres unmarked) [No 17] .
Result: 46.5

Q: Field entry: CCCCCCCCCCCCCCCCCCOP(=O)(OCCCC)OP(=O)(O)OC[C@H]1O[C@@H](n2cc(C)c(=O)[nH]c2=O)C[C@@H]1N=[N+]=[N-] (some centres unmarked) [No 19]
Result: 47.8

Q: Another: CCCCCCCCCCCCCCCCCCOP(=O)(OCCCC)OP(=O)(O)OC[C@@H]1C=C[C@H](n2cc(C)c(=O)[nH]c2=O)O1 (some centres unmarked) [No 16]
Result: 41.3

----------
Test system: HIV-1 (HE)
Assay: Inhibition of HIV-1 replication in wild-type CEM/0 cell cultures
Type: cell-based
Conditions: Human immunodeficiency virus 1, CCRF-CEM; CD4+ T-lymphocytes (CEM/0); mean ±SD of n=2-3; read-out: Antiviral activity EC50 HIV-1 (HE)
Method: All β-phosph(on)ate prodrug compounds were evaluated for their activity to inhibit the replication of HIV in HIV-1- and HIV-2-infected wild-type (CEM/0) cell cultures and in HIV-2-infected mutant thymidine kinase-deficient (CEM/TK^-) cell cultures (see Table 3). Antiviral activity was determined in CD4^+ T-lymphocytes: 50% effective concentration (EC50 [µM]).
Some compounds, each annotated with its measured EC50.
# value in µM; strip the unit string

Some compounds with recorded EC50:
- COMPOUND: "Nc1nc(NC2CC2)c2ncn([C@H]3C=C[C@@H](CO)C3)c2n1 [ABC, abacavir, reference compound]"
  EC50, µM: 9.39
- COMPOUND: "Cc1cn([C@H]2C[C@H](F)[C@@H](CO)O2)c(=O)[nH]c1=O [FLT, alovudine, reference compound]"
  EC50, µM: 0.0025

Attention now turns to another entry.
Q: Using the record for Cc1cn([C@H]2C[C@H](N=[N+]=[N-])[C@@H](CO)O2)c(=O)[nH]c1=O [AZT, zidovudine, reference compound] , report its EC50.
Result: 0.014
